Tested on: U251 CNS
Mark one answer only. Choices: yes = active, no = inactive

Test call, this compound: NC(=O)c1c(NC(=O)c2cccc(C(F)(F)F)c2)sc2c1CCC(=O)C2 yes

Test call, this compound: COc1ccccc1-c1nccc(COc2ccccc2C[C@@H](Oc2ncnc3sc(-c4ccc(F)cc4)c(-c4ccc(OCCN5CCN(C)CC5)c(Cl)c4C)c23)C(=O)O)n1 no

Test call, this compound: COc1ccc(-c2cn(-c3cc(OC)c(OC)c(OC)c3)c(=O)n2-c2ccccc2)cc1 no

Test call, this compound: O=C(Nc1nc2ccc(F)cc2s1)c1cccnc1Nc1ccc(Cl)cc1Cl no

Test call, this compound: Cc1cc2c(-c3nc4ccccn4c3NC34CC5CC(CC(C5)C3)C4)c(O)c(O)cc2c(O)c1-c1c(C)cc2c(-c3nc4ccccn4c3NC34CC5CC(CC(C5)C3)C4)c(O)c(O)cc2c1O yes

* * *

Tested on: HL-60(TB) leukemia
Assay: NCI tumour cell line growth inhibition, 48 h; in the data active = GI50 below about 0.43 µM; inactive = the rest
Mark one answer only. Choices: active, inactive

Test call, this molecule: COc1ccc(-c2nn3ncccc3c2-c2ccnc(Nc3cccc(C(F)(F)F)c3)n2)cc1 inactive

Test call, this molecule: CC(=O)OC1Oc2cc(C)c(C)cc2-c2oc(=O)c(-c3ccccc3)cc21 (stereo not given) active

Test call, this molecule: N#Cc1c(-c2ccc(Cl)cc2)csc1NC(=O)Nc1cccc(C(F)(F)F)c1 inactive

Test call, this molecule: COc1cc(-c2nn3c(=O)n(-c4ccc(Cl)cc4)c(=O)nc3s2)cc(OC)c1OC inactive

Test call, this molecule: N#CC1=C(N)Oc2c(sc3c(Br)cccc23)C1c1ccc(F)cc1 (stereo not given) active

Test call, this molecule: C#CCn1cc(C=C2C(=O)NC(=S)NC2=O)c2cc(Cl)ccc21 inactive

Test call, this molecule: O=C(Nc1nc2ccc(F)cc2s1)c1cccnc1Nc1ccc(Cl)cc1Cl inactive

Test call, this molecule: Cc1cc(S(N)(=O)=O)c(S/C(=N\NS(=O)(=O)c2ccccc2)c2ccc(Cl)c(Cl)c2)cc1Cl inactive

Test call, this molecule: NCCn1c2c(c3ccccc3c1=O)C(=O)c1ccccc1-2 active

Test call, this molecule: Cc1ccc2c(C(C[N+](=O)[O-])c3ccco3)c(-c3ccccc3)[nH]c2c1 (stereo not given) inactive

* * *

Exercise: for every item that follows, state its recorded TGI.
Tested on: SK-MEL-2 melanoma
Test: NCI tumour cell line growth inhibition, 48 h

Please give the measured TGI for this compound: COc1ccc(C(=C2C(=O)OC(=O)C2=C(C)C)c2ccc(OC)cc2)cc1 > 100 µM

Please give the measured TGI for this compound: N#CC1=C(N)Oc2c(sc3c(Br)cccc23)C1c1ccc(F)cc1 (stereo unspecified) 31.1 µM

Please give the measured TGI for this compound: Cc1nc2ccccc2n1Cc1ccc(NC(=S)Nc2ccccc2)cc1 > 100 µM

Please give the measured TGI for this compound: O=C1OC(c2ccc(Cl)c3ccccc23)c2ccccc21 (stereo unspecified) > 100 µM

Please give the measured TGI for this compound: COC(=O)[C@@H]1[C@H]2CC[C@]3(C)[C@@H](OC(C)=O)CC[C@H]3[C@@H]2CC[C@H]1C1(C)SCCS1 40 µM

Please give the measured TGI for this compound: NC(=O)c1c(NC(=O)c2cccc(C(F)(F)F)c2)sc2c1CCC(=O)C2 6.25 µM

Please give the measured TGI for this compound: C#CCn1cc(C=C2C(=O)NC(=S)NC2=O)c2cc(Cl)ccc21 5.91 µM

Please give the measured TGI for this compound: Clc1sc(Cl)c2c1[C@H](Br)C[C@@H]2Cl > 100 µM

Please give the measured TGI for this compound: Cc1nnc(N=Nc2c(O)[nH]c3ccccc23)[nH]c1=O > 100 µM

Please give the measured TGI for this compound: CN1C2CCC1C(CO)C(=O)C2 (stereo unspecified) > 100 µM

Please give the measured TGI for this compound: C/C(N=NC(=S)N1CCCCCC1)=C1\C=CC=CN1O 18.8 µM

Please give the measured TGI for this compound: CC1=CC(O)CC(C)(C)C1/C=C/C(C)=C/C=C/C(C)=C/C=C/C=C(C)/C=C/C=C(C)/C=C/C1=C(C)CC(O)CC1(C)C (stereo unspecified) 68.8 µM

Please give the measured TGI for this compound: O=C(O)C12C3C4(C(=O)O)C1C1(C(=O)O)C2C3(C(=O)O)C41 (stereo unspecified) > 100 µM

Please give the measured TGI for this compound: COc1ccc(C(=O)/C=C/c2ccc(OCCCCCCCCCCOc3ccc(/C=C/C(=O)c4ccc(OC)c(OC)c4)cc3)cc2)c(OC)c1 > 100 µM

Please give the measured TGI for this compound: C=C1c2ccccc2N(S(=O)(=O)c2ccc(C)cc2)C12CCCCC2 > 100 µM

Please give the measured TGI for this compound: CCOC(=O)C(=Cc1c(-c2ccccc2)[nH]c2ccccc12)C(=O)OCC 17.3 µM

Please give the measured TGI for this compound: CC(C)(C)OC(=O)n1c(Cl)c(C(=O)N=C=S)c2ccccc21 75.8 µM

Please give the measured TGI for this compound: Cc1cc([C@H](C)Nc2nccc(N3C(=O)OC[C@@H]3[C@H](C)F)n2)ncc1-c1ccnc(C(F)(F)F)c1 > 100 µM

Please give the measured TGI for this compound: COc1cc(/C=C2/C(=O)N(C(=O)c3ccccc3O)N=C2C)ccc1O > 100 µM

Please give the measured TGI for this compound: Cc1ccc2c(C(C[N+](=O)[O-])c3ccco3)c(-c3ccccc3)[nH]c2c1 (stereo unspecified) > 100 µM

Please give the measured TGI for this compound: CCc1nc2c([nH]1)C(=O)c1ccccc1C2=O > 100 µM

* * *

Exercise: for every item that follows, state its recorded TGI.
Test system: A549 NSCLC
Test: NCI tumour cell line growth inhibition, 48 h

Please give the measured TGI for this compound: CC(=O)Nc1ccc2c(c1)CN1C(=O)c3ccccc3C1=N2 > 100 µM

Please give the measured TGI for this compound: COc1ccc(-c2nn3ncccc3c2-c2ccnc(Nc3cccc(C(F)(F)F)c3)n2)cc1 > 25 µM

Please give the measured TGI for this compound: C=C[C@@]1(C)CC(=O)[C@]2(O)[C@@]3(C)[C@@H](O)CCC(C)(C)[C@@H]3[C@H](O)[C@@H](OC(C)=O)[C@@]2(C)O1 > 100 µM

Please give the measured TGI for this compound: O=C(O)C(O)c1ccc(F)cc1 (stereo not given) > 100 µM

Please give the measured TGI for this compound: O=C(/C(=N/Nc1cn[nH]c(=O)c1Cl)c1ccccc1)c1ccccc1 > 100 µM

Please give the measured TGI for this compound: C=C(C[N+](C)(C)C)N/N=C/c1oc(-c2ccc(OC)c(OC)c2)c(-c2ccc(OC)c(OC)c2)c1[N+](=O)[O-] > 100 µM

Please give the measured TGI for this compound: BrC(Br)([P+](c1ccccc1)(c1ccccc1)c1ccccc1)[P+](c1ccccc1)(c1ccccc1)c1ccccc1 > 100 µM

Please give the measured TGI for this compound: O=C(NOC(=O)c1ccc([N+](=O)[O-])cc1)c1ccc(Cl)cc1 > 100 µM

Please give the measured TGI for this compound: CN(C)CCN1C(=O)N(CCN(C)C)c2c3cc(O)ccc3nc3c([N+](=O)[O-])ccc1c23 35.5 µM

Please give the measured TGI for this compound: Cc1cc([C@H](C)Nc2nccc(N3C(=O)OC[C@@H]3[C@H](C)F)n2)ncc1-c1ccnc(C(F)(F)F)c1 > 100 µM

Please give the measured TGI for this compound: O=C1c2cc3c(cc2-c2c1c1cc(F)c(F)cc1c(=O)n2C[C@H](O)CO)OCO3 1.12 µM

Please give the measured TGI for this compound: O=C(O)CCSc1ncnc2nc[nH]c12 > 100 µM

Please give the measured TGI for this compound: O=C1c2c(Br)sc(Br)c2[C@H]2OC(=S)N[C@@H]12 37.5 µM

Please give the measured TGI for this compound: NCCNc1nc2ccccc2c2c(=O)c3cc(F)cc(Cl)c3sc12 3.72 µM

Please give the measured TGI for this compound: Cc1nc2ccccc2n1Cc1ccc(NC(=S)Nc2ccccc2)cc1 > 100 µM

Please give the measured TGI for this compound: Cc1cc(C)c2nccc(NCCCN(C)C)c2c1[N+](=O)[O-] > 100 µM

Please give the measured TGI for this compound: CC(Br)CN(CC(C)Br)c1ccc2c(c1)Cc1ccccc1-2 (stereo not given) 24.4 µM

Please give the measured TGI for this compound: CN1CCN(CCCOc2ccc3ncnc(Nc4ccc(Oc5cccc(F)c5)c(Cl)c4)c3c2)CC1 3.24 µM

Please give the measured TGI for this compound: C/C(=N\O)[C@H]1CC[C@@]2(C)[C@@H]3CC[C@H]4C(C)(C)/C(=N/O)CC[C@@]45CC35CC[C@]12C (stereo not given in full) 9.59 µM

Please give the measured TGI for this compound: CCCCCCCCCCCCNC(=O)[C@H]1CSC(c2ccsc2)N1 (stereo not given in full) 13.7 µM

Please give the measured TGI for this compound: N=C(N)SCC(=O)O > 100 µM

Please give the measured TGI for this compound: CCc1ccc(OCc2ccccc2C(=O)Nc2ccc3nc(C)cc(N)c3c2)cc1 3.27 µM

Please give the measured TGI for this compound: COC(=O)c1ccc2cc(O)ccc2c1 > 100 µM

Please give the measured TGI for this compound: COc1cc2c3c(c1OC)/C(=N/OS(=O)(=O)c1ccc(C)cc1)CC3N(S(=O)(=O)c1ccc(C)cc1)CC2 (stereo not given) > 100 µM

Please give the measured TGI for this compound: O=c1ccn([C@@H]2C=C(CO)[C@@H](O)[C@H]2O)c(=O)[nH]1 > 625 µM

Please give the measured TGI for this compound: O=c1[nH]nc(-c2ccc([N+](=O)[O-])cc2)[nH]1 > 100 µM

Please give the measured TGI for this compound: CC(C)c1ccc2c(c1)c(SC(C)(C)C)c(CC(C)(C)C(=O)O)n2Cc1ccc(Cl)cc1 14.1 µM

Please give the measured TGI for this compound: COc1cccc(Nc2nc3c([nH]2)c(=O)n(C)c(=O)n3C)c1 > 10 µM

Please give the measured TGI for this compound: CO[C@H](C)[C@](O)(C(=O)OCC1=CCN2CC[C@@H](O)[C@H]12)C(C)C > 100 µM

Please give the measured TGI for this compound: COc1ccc(-c2cn(-c3cc(OC)c(OC)c(OC)c3)c(=O)n2-c2ccccc2)cc1 > 100 µM

Please give the measured TGI for this compound: COc1ccc2c(c1)-c1nc(=S)n(CCN(C)C)c3ccc([N+](=O)[O-])c(c13)N2 2.28 µM

Please give the measured TGI for this compound: CCC1(c2ccc(OC)c(OC)c2)CCN2C(=O)C(O)CC21 (stereo not given) > 100 µM

Please give the measured TGI for this compound: O=c1c2ccccc2c(=O)c2c1sc1c(=O)c3ccc(O)cc3c(=O)c12 0.497 µM

Please give the measured TGI for this compound: Cc1cc(C(=O)Nc2cc(Nc3ncccc3-c3ncnc4nc[nH]c34)ccc2F)cc(C(C)(C)C#N)c1 > 100 µM

Please give the measured TGI for this compound: Cc1cc(Nc2cc(N3CCN(C)CC3)nc(C#Cc3ccccc3)n2)n[nH]1 13.3 µM

Please give the measured TGI for this compound: COc1cc(/C=C2\C(=O)Nc3ccc(Br)cc32)cc(OC)c1OC > 100 µM

Please give the measured TGI for this compound: C#CCn1cc(C=C2C(=O)NC(=S)NC2=O)c2cc(Cl)ccc21 16.6 µM

Please give the measured TGI for this compound: COc1ccccc1-c1nccc(COc2ccccc2C[C@@H](Oc2ncnc3sc(-c4ccc(F)cc4)c(-c4ccc(OCCN5CCN(C)CC5)c(Cl)c4C)c23)C(=O)O)n1 31.7 µM

Please give the measured TGI for this compound: Cc1ccc(-c2cc(C(Cl)Cl)on2)cc1 > 100 µM

Please give the measured TGI for this compound: Clc1sc(Cl)c2c1[C@H](Br)C[C@@H]2Cl > 100 µM
